Origin of values: the supplement of paper PMC10567573

B1: P2RY14 (parent)
chain: KKIFKSHLKSSRNSTSVKKKSSRN

# Variants of: B1
# protocol-details: protein stability index of a GFP-peptide fusion (GPS, HEK-293T) (PSI 1-6); higher = more stable;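 further: lentivirally expressed fusions sorted by FACS into six bins by GFP to DsRed ratio, PSI derived from sequencing read proportions per bin multiplied by bin number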
# assay-conditions: c terminus: a fixed tail appended
readout-label: protein stability index
No unit in the answer, only the number.

These recorded examples may help you get a feel for the data.
{"sequence-record": "KKIFKSHLKASRNSTSVKKKSSRN [S10A]", "protein stability index": 4.08}
{"sequence-record": "KKIFKSHLKSSRNSTSVKKKSSRL [N24L]", "protein stability index": 4.12}
{"sequence-record": "KKIFKPHLKSSRNSTSVKKKSSRN [S6P]", "protein stability index": 3.69}
{"sequence-record": "KKIFKSHLKSSRNSTSVKKKDSRN [S21D]", "protein stability index": 4.42}
{"sequence-record": "KKIFKSHLKSSRTSTSVKKKSSRN [N13T]", "protein stability index": 4.5}

Ask: Data request, read-out protein stability index, for DKIFKSHLKSSRNSTSVKKKSSRN [K1D]
Result: 4.5

Ask: Data request, read-out protein stability index, for KKAFKSHLKSSRNSTSVKKKSSRN [I3A]
Result: 4.18

Ask: Data request, read-out protein stability index, for KKIFKSHLKYSRNSTSVKKKSSRN [S10Y]
Result: 3.54

Ask: Data request, read-out protein stability index, for KKIFKSRLKSSRNSTSVKKKSSRN [H7R]
Result: 4.28
